Items are presented alongside their recorded cytotoxicity at 10 µM.
assay_details: Toxicity liver stage against HepG2, at 10uM
Format: cell-based
Set-up: test concentration 10 uM, cell line HepG2-A16-CD81EGFP
setup_conditions: human, HepG2-A16-CD81EGFP cells; read-out: INHIBITION
measured_attribute: cytotoxicity at 10 µM (%)

compound	measured_attribute	recorded_value
Cc1nn(C)c(N2CCOCC2)c1CNC1CCc2cc(F)ccc21 (configuration not stated)	cytotoxicity at 10 µM	-9.95
CCOc1ccc(CC(=O)N2CCCC2c2cc(C)on2)cc1 (configuration not stated)	cytotoxicity at 10 µM	-46
Cn1ccnc1CN1CCC(CCC(=O)Nc2ccccc2Cl)CC1	cytotoxicity at 10 µM	-3.73
O=C(N[C@@H]1CCC[C@@H](N2CCCC2)[C@@H]1O)c1cnn2cccnc12	cytotoxicity at 10 µM	10.6
COc1ccc(CCN2CC(n3nc(C)cc3C)C2)cc1	cytotoxicity at 10 µM	-9.12
COc1ccc(S(=O)(=O)N2CCC(O)(CN(C)C)C2)cc1 (configuration not stated)	cytotoxicity at 10 µM	-3.36
CC(CNC(=O)Nc1cn[nH]c1)N1CCc2ccccc2C1 (configuration not stated)	cytotoxicity at 10 µM	-0.289
CC1CN(C)CCN1CC(=O)NCCOc1cccc(F)c1 (configuration not stated)	cytotoxicity at 10 µM	-11.7
CCNc1cc2c(nn1)CCN(C(=O)c1nccnc1N)C2	cytotoxicity at 10 µM	-16.4
CO[C@@H]1CCN(C(=O)Cc2ccc(F)cc2)[C@@H]1Cc1cccnc1	cytotoxicity at 10 µM	10.1
c1cncc(C2COC3(CCN(Cc4nccs4)CC3)C2)c1 (configuration not stated)	cytotoxicity at 10 µM	1.7
CS(=O)(=O)CCN1CCSCC1c1ccc(Cl)cc1 (configuration not stated)	cytotoxicity at 10 µM	-24.3
